All values here come from patent US20040235726A1.

biological target: human GLP-1 receptor (human, UniProt P43220 24-463); assay: cell-based or functional assay
Where no end group is shown, it is not given here.
MEASUREMENT_TYPE: GLP-1 receptor activation relative to Val^8-GLP-1 (7-37) OH

HVEGTFTSDVSSYLEGQAAHEFIAWLVKGRG-OH [Val^8-His^26-GLP-1 (7-37) OH]    3.5 relative to Val^8-GLP-1 (7-37) OH
HVEGTFTSDVSSYLEEQAAKIFIAWLVKGRG-OH [Val^8-Glu^22-Ile^27-GLP-1 (7-37) OH]    2 relative to Val^8-GLP-1 (7-37) OH
HVEGTFTSDWSSYLEEQAAKEFIAWLIKGRG-OH [Val^8-Trp^16-Glu^22-Ile^33-GLP-1 (7-37) OH]    4.1 relative to Val^8-GLP-1 (7-37) OH
HVEGTFTSDVSSYLEKQAAKEFIEWLVKGRG-OH [Val^8-Lys^22-Glu^30-GLP-1 (7-37) OH]    0.8 relative to Val^8-GLP-1 (7-37) OH
HVEGTFTSDVSSYLEKQAAKEFIAWLVKGR-NH2 [Val^8-Lys^22-GLP-1 (7-36) NH2]    1.2 relative to Val^8-GLP-1 (7-37) OH
HVEGTFTSDVSSYLEEQAAKEFIAWLVKGRH-OH [Val^8-Glu^22-His^37-GLP-1 (7-37) OH]    4.7 relative to Val^8-GLP-1 (7-37) OH
HVEGTFTSDVSSYLEGQAAKEFIAWLVKGHG-OH [Val^8-His^36-GLP-1 (7-37) OH]    0.5 relative to Val^8-GLP-1 (7-37) OH
HVEGTFTSDVSSYLEGQAAKEFIHWLVKGRG-OH [Val^8-His^30-GLP-1 (7-37) OH]    0.4 relative to Val^8-GLP-1 (7-37) OH
